Target: T1, GST-RIM2 PDZ domain 1 fusion protein (human)
T1 chain: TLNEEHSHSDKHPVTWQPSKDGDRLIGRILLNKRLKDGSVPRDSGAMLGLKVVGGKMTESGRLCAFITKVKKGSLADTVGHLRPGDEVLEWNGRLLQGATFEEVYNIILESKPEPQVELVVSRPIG
Experiment: G3 assay titration, immobilised GST-PDZ
No end group written: not given here.
attribute.measured: EC50 (nM)

[[record]]
binder = "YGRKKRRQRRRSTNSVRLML (not fully specified)"
numeric_readout = 47

